# test: amyloid nucleation score (Sup35N fusion, yeast selection) (log enrichment); library NNK1; higher = more nucleation; inactive = no reads after selection;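 note: zero at mode of non-aggregating sequences after 7 days selection at 30°C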
reported-endpoint: amyloid nucleation score

>>> result("SRTYFESRDFEEYRAMRPSL")
"inactive"
>>> result("ESEWNIMPFDNLYLGRETVW")
"inactive"
>>> result("SWIHVHHL")
0.691
>>> result("RICKGIAGKSENCNTLYNSS")
"inactive"

* * *

# test: amyloid nucleation score (Sup35N fusion, yeast selection) (log enrichment); library NNK1; higher = more nucleation; inactive = no reads after selection
Entries and their amyloid nucleation score values follow.
In your answer, state the number alone without any accompanying words.

Example sequences with recorded amyloid nucleation score:
>>> recorded_number("YSLNTSTAWESAAAVTW")
0.196
>>> recorded_number("FKRRLGCLKPRNY")
-0.333
>>> recorded_number("TFHWMKDAALSQSSVKRTMA")
0.359
>>> recorded_number("PVDVGYIRIPP")
0.093

Turning now to a further record.
### Prompt Which amyloid nucleation score is reported for this sequence? GHIDAQWPRFRCHMA
### Response 0.147
